- Assayed system: Aurora kinase A (Homo sapiens)
- Sequence (O14965 whole entry): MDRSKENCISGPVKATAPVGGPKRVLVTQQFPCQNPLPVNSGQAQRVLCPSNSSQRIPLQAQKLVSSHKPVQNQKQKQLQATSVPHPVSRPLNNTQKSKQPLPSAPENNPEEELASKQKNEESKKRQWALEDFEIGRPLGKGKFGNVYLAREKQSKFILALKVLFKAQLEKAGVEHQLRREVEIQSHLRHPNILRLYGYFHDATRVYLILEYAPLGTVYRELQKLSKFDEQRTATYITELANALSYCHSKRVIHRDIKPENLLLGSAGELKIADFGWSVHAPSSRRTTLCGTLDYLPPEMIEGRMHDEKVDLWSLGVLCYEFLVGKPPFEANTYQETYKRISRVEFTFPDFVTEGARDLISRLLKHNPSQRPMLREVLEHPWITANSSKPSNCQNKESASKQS
pIC50: −log10 of the molar value.
System: Aurora kinase A (Homo sapiens) | Read-out: pIC50 | Origin: multiple publications

| Structure string | Experimental value |
| --- | --- |
| CCCNNC(=O)c1ccc(Cn2cc(Nc3ncc(Cl)c(-c4cnc5ccccn45)n3)cn2)cc1 | < 5.00 |
| CN(C)C(=O)c1cc2cnc(Nc3ccc(-c4cnn(C)c4)cc3Cl)cc2[nH]1 | < 4.00 |
| CCc1ccc2c(c1)c(=O)c(C(=O)Nc1ccc(Oc3ccnc4cc(OC)c(OC)cc34)c(F)c1)c(C)n2C | 6.72 |

Measured pIC50 of CN(C)C(=O)c1ccc(Nc2cc3c(cn2)cc(C(=O)N(C)C)n3C(=O)OC(C)(C)C)c(Cl)c1 : 4.64

Measured pIC50 of CC(=O)N[C@H]1CC[C@H](c2ncc(Cl)c(Nc3ccccc3S(=O)(=O)C(C)C)n2)CC1 : 5.88

Measured pIC50 of COC1CCN(C(=O)c2ccc(Nc3cc4[nH]c(C(=O)N(C)C)cc4cn3)c(Cl)c2)CC1 : < 4.00

Measured pIC50 of CN(C)C(=O)c1cc2cnc(Nc3ccc(-c4cncn4C)cc3Cl)cc2n1C(=O)OC(C)(C)C : < 4.40

Measured pIC50 of N#CC1(CNc2cccc(-c3cc(Nc4cnn(Cc5ccc(C(=O)Nc6ccccc6N)cc5)c4)ncc3Cl)n2)CCOCC1 : < 5.00
